tested on: Fer (mouse); test: phosphorylation enrichment, bacterial display (enrichment ratio); higher = better substrate or ligand; peptides without Tyr show the background;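 further: 11-residue human phosphosite peptides and single-mutation variants displayed on the E. coli surface, counted by deep sequencing, each peptide's frequency after selection divided by its frequency in the unselected input library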;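 further: frequency after pTyr selection over input frequency; kinase dosed for 20-30% of maximal phosphorylation in three min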
In this scheme, each record receives a class according to its phosphorylation enrichment; the ranges are low bracket (below 0.5), middle bracket (0.5 to below 0.6), high bracket (0.6 or more)

[
  {
    "entrySequence": "PEADKYRLPYA [FGG_Y300_T303P]",
    "labelClass": "middle bracket"
  },
  {
    "entrySequence": "DPAFGYEDFTR [SESN2_Y323_T320A]",
    "labelClass": "low bracket"
  },
  {
    "entrySequence": "WQQQSYLDYGI [CTNNB1_Y30_S33Y]",
    "labelClass": "low bracket"
  },
  {
    "entrySequence": "SFSGEYGSGGG [ZG16_Y30_G32S_YF]",
    "labelClass": "low bracket"
  },
  {
    "entrySequence": "LNARHYGGLTG [PGAM2_Y92_E89A]",
    "labelClass": "high bracket"
  },
  {
    "entrySequence": "FSTDCYRVGGH [NTRK2_Y707_Y706C_YF]",
    "labelClass": "low bracket"
  },
  {
    "entrySequence": "VYLGAYDRFLP [SLC22A5_Y486]",
    "labelClass": "high bracket"
  },
  {
    "entrySequence": "IHETTHNSIMK [ACTA1_Y281_Y281H]",
    "labelClass": "low bracket"
  },
  {
    "entrySequence": "RPYSPYIIRGM [LRP5_Y1531_R1529S]",
    "labelClass": "high bracket"
  },
  {
    "entrySequence": "DTDSSYCIPTA [GAB1_Y373]",
    "labelClass": "middle bracket"
  },
  {
    "entrySequence": "HGEAYYSEVKP [PAK5_Y182]",
    "labelClass": "high bracket"
  },
  {
    "entrySequence": "LLANAYIFDVQ [L1CAM_Y418_V421D_YF]",
    "labelClass": "high bracket"
  },
  {
    "entrySequence": "TWQSMYGCDVG [HLA-B_Y123_L119W]",
    "labelClass": "middle bracket"
  },
  {
    "entrySequence": "NTFEKYWPFFQ [GATM_Y103_YF]",
    "labelClass": "low bracket"
  },
  {
    "entrySequence": "KSVLVYRNGDP [DCDC2_Y22]",
    "labelClass": "low bracket"
  },
  {
    "entrySequence": "FYNSEYGELSE [FLT4_Y1337]",
    "labelClass": "high bracket"
  },
  {
    "entrySequence": "HFVDEYDQTIE [KRAS_Y32_P34Q]",
    "labelClass": "high bracket"
  },
  {
    "entrySequence": "FFTEEYVRAHP [DOCK2_Y1555_D1558A]",
    "labelClass": "middle bracket"
  },
  {
    "entrySequence": "FDGKEYDPVEA [MAPRE2_Y167_YF]",
    "labelClass": "high bracket"
  },
  {
    "entrySequence": "QVMDGYPMPIG [MMP14_Y353]",
    "labelClass": "middle bracket"
  },
  {
    "entrySequence": "IRQGHYESLKE [MTR_Y921_D919G]",
    "labelClass": "high bracket"
  },
  {
    "entrySequence": "KRGASYILKLA [SERPINB1_Y84]",
    "labelClass": "low bracket"
  },
  {
    "entrySequence": "KEAQVYQAFRL [SUCLG2_Y343_K347R]",
    "labelClass": "high bracket"
  },
  {
    "entrySequence": "GSRGKYFSGFR [ATM_Y332_S333F]",
    "labelClass": "low bracket"
  },
  {
    "entrySequence": "KPIETYFSKNY [PLP1_Y50_L46P]",
    "labelClass": "low bracket"
  },
  {
    "entrySequence": "IALNSYHSRNC [IFNGR1_Y397]",
    "labelClass": "low bracket"
  }
]

---

biological target: SHP2-C SH2; assay: SH2 binding enrichment of the phosphorylated peptide, bacterial display (enrichment ratio); higher = better substrate or ligand; peptides without Tyr show the background;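 further: peptide library displayed on the E. coli surface as eCPX fusions, selected cells deep-sequenced, score is each peptide's frequency after selection divided by its frequency in the input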
In this scheme, each record receives a class according to its SH2 binding enrichment; the ranges are low band (below 0.7), middle band (0.7 to below 0.9), high band (0.9 or more)

[
  {
    "entrySequence": "KNEKVYTRHGV [FLOT1_Y56_S52N]",
    "labelClass": "middle band"
  },
  {
    "entrySequence": "TGGLEYIVPLM [CLCN4_Y548]",
    "labelClass": "low band"
  },
  {
    "entrySequence": "GLTSTYVGIRK [ROBO1_Y932_A933V]",
    "labelClass": "high band"
  },
  {
    "entrySequence": "AYRHGYFDEEM [PLEC_Y2971_R2969H]",
    "labelClass": "middle band"
  },
  {
    "entrySequence": "GVTLLYFGRDN [ADGRD1_Y85_Y89D_YF]",
    "labelClass": "high band"
  },
  {
    "entrySequence": "RRVLVYGDRGA [QDPR_Y16_G18D]",
    "labelClass": "low band"
  },
  {
    "entrySequence": "RRNEEYCLLDS [ITK_Y198]",
    "labelClass": "low band"
  },
  {
    "entrySequence": "GRTNICKNKKD [SLC26A3_Y520_Y520C]",
    "labelClass": "high band"
  },
  {
    "entrySequence": "KSELAYEIFDK [MYOM2_Y1024]",
    "labelClass": "middle band"
  },
  {
    "entrySequence": "YVKEPYIQSRF [HIPK4_Y175]",
    "labelClass": "middle band"
  },
  {
    "entrySequence": "NRVEIYEKTVE [CYFIP1_Y108]",
    "labelClass": "middle band"
  },
  {
    "entrySequence": "RFGKVYKGHLF [ROR2_Y488]",
    "labelClass": "low band"
  },
  {
    "entrySequence": "RVDRDYVLKSA [HTATIP2_Y111]",
    "labelClass": "low band"
  },
  {
    "entrySequence": "GVLKEYGEKVL [CPS1_Y529_V531E]",
    "labelClass": "middle band"
  },
  {
    "entrySequence": "CTTIHYNFVCN [TP53_Y234_M237V_YF]",
    "labelClass": "high band"
  },
  {
    "entrySequence": "KRGASYILKLA [SERPINB1_Y84]",
    "labelClass": "high band"
  },
  {
    "entrySequence": "QVMDGYPMPIG [MMP14_Y353]",
    "labelClass": "low band"
  },
  {
    "entrySequence": "DGMADCSDPSF [CDC5L_Y459_Y459C_YF]",
    "labelClass": "middle band"
  },
  {
    "entrySequence": "PSGPAYRGAVP [ASAH1_Y43_T42A]",
    "labelClass": "low band"
  },
  {
    "entrySequence": "IGEGTYRTVFK [CDK5_Y15_G16R]",
    "labelClass": "low band"
  },
  {
    "entrySequence": "PSARTYCFKQE [KLHDC9_Y175_YF]",
    "labelClass": "low band"
  },
  {
    "entrySequence": "IRRIAYEFVEM [ADA_Y84_K80R]",
    "labelClass": "low band"
  },
  {
    "entrySequence": "CEHRGSLYLAI [TEK_Y897_Y897S]",
    "labelClass": "low band"
  },
  {
    "entrySequence": "SRNSKYNAEST [PSEN1_Y315_K311R]",
    "labelClass": "low band"
  },
  {
    "entrySequence": "EEGNPYYSSAR [MCCC2_Y520]",
    "labelClass": "low band"
  },
  {
    "entrySequence": "IRQGHYESLKE [MTR_Y921_D919G]",
    "labelClass": "middle band"
  },
  {
    "entrySequence": "IHFAIYLLKFS [ARMC9_Y107_YF]",
    "labelClass": "high band"
  },
  {
    "entrySequence": "GLRYGYGVLGG [KRTAP20-2_Y15]",
    "labelClass": "middle band"
  },
  {
    "entrySequence": "YGPPQYNIQYS [ERBB2IP_Y977]",
    "labelClass": "high band"
  },
  {
    "entrySequence": "CEQELYSQLVY [WAS_Y102_W97C]",
    "labelClass": "low band"
  },
  {
    "entrySequence": "LWKWRYEELKE [CCDC102B_Y299_K298R]",
    "labelClass": "high band"
  },
  {
    "entrySequence": "KFWREYILSLE [GPC3_Y299_YF]",
    "labelClass": "high band"
  },
  {
    "entrySequence": "LNPFIYSLRNR [OR1A1_Y288]",
    "labelClass": "high band"
  },
  {
    "entrySequence": "CCNHPYRINGA [CHD7_Y1256_L1257R]",
    "labelClass": "low band"
  },
  {
    "entrySequence": "FGGTVCHSPVS [PRC1_Y511_Y511C]",
    "labelClass": "low band"
  },
  {
    "entrySequence": "IKKLIYVHLVI [JAGN1_Y42]",
    "labelClass": "middle band"
  },
  {
    "entrySequence": "ARIVDYNIIGW [MYH7_Y588_G584R]",
    "labelClass": "low band"
  },
  {
    "entrySequence": "GLQDEYDFKCK [STAT1_Y170_D165G]",
    "labelClass": "middle band"
  },
  {
    "entrySequence": "SVVLPYEPPEV [TP53_Y220_V218L]",
    "labelClass": "middle band"
  },
  {
    "entrySequence": "AARVSYRLASG [DCHS1_Y1582]",
    "labelClass": "middle band"
  },
  {
    "entrySequence": "MKGEFYRFLAE [YWHAG_Y131_D129E_YF]",
    "labelClass": "low band"
  },
  {
    "entrySequence": "LRYDSYSSYCN [SLC20A2_Y433]",
    "labelClass": "low band"
  },
  {
    "entrySequence": "LENSTYQYIHV [CRB1_Y760_R764H]",
    "labelClass": "high band"
  },
  {
    "entrySequence": "PPVVNYEEDAR [FER_Y402]",
    "labelClass": "high band"
  },
  {
    "entrySequence": "DPLLTHRFPPK [LMNA_Y481_Y481H]",
    "labelClass": "low band"
  },
  {
    "entrySequence": "APRKVYDTRDD [ZFPL1_Y215]",
    "labelClass": "low band"
  },
  {
    "entrySequence": "KFSNQYKATIG [RAB7A_Y37]",
    "labelClass": "high band"
  },
  {
    "entrySequence": "RHPLEYLRQYP [NARS2_Y138]",
    "labelClass": "high band"
  }
]
